Attribute: TGI
system: XF 498 CNS; test: NCI tumour cell line growth inhibition, 48 h

COc1cc(OC)c2c(=O)c3cccc([N+](=O)[O-])c3n(C)c2c1: > 100 µM
NC1=NCN(C2OC(CO)C(O)C2O)C(=O)N1 (centres undefined): 197 µM
CCOC(=O)C1=C(OC(OCC)C(CC)[Se]c2ccccc2)CCC1 (centres undefined): 46.8 µM
C#C[C@]1(O)CC[C@H]2[C@@H]3CCc4cc(O)ccc4[C@H]3CC[C@@]21C: 98 µM
C=C1C(O)C2(O)OCC34C(CC5C(C)=CC(=O)C(O)C5(C)C23)OC(=O)C(OC(=O)C/C=C/CCCCCCCC)C14 (centres undefined): 0.0351 µM

Incoming: Data request, read-out TGI, for O=P(NCCCO)(OCc1ccccc1)N(CCCl)CCCl (centres undefined)
Outgoing: > 100 µM

Incoming: Data request, read-out TGI, for C1=CC2CCC1CN2CCC1CNc2ccccc21 (centres undefined)
Outgoing: > 100 µM

Incoming: Data request, read-out TGI, for COc1ccccc1C(=O)N(Cc1ccccc1)c1ccc(Cl)c(C(=O)OC(C)C)c1
Outgoing: 43.4 µM

Incoming: Data request, read-out TGI, for CCCCOC/N=C(/N)NC#N
Outgoing: > 100 µM

Incoming: Data request, read-out TGI, for O=C(/C=C/c1ccccc1O)c1ccccc1Cl
Outgoing: > 100 µM

Incoming: Data request, read-out TGI, for COc1ccc(Br)c(C(=O)N2CCc3ccccc32)c1N
Outgoing: > 100 µM

Incoming: Data request, read-out TGI, for O=c1[nH]cnc2n[nH]nc12
Outgoing: 83.5 µM

Incoming: Data request, read-out TGI, for CNC(=O)OCc1nc(SC)n(C)c1COC(=O)NC
Outgoing: 446 µM

Incoming: Data request, read-out TGI, for COc1ccc(C2Cc3cc(OC)c(OC)c(OC)c3C2)cc1 (centres undefined)
Outgoing: 54.5 µM

---

tested on: SK-MEL-2 melanoma; experiment: NCI tumour cell line growth inhibition, 48 h
Where a SMILES comes first, the peptide text is derived from it. The star is where a group is joined. Boc = CC(C)(C)OC(=O)*; nBu = CCCC*
QUANTITY KIND: TGI

As a guide, the following entries are already answered.
C=CCN1CCC(c2cc(C(=O)OCC)[nH]c2-c2cc(C)no2)C1=O (configuration not stated): > 100 µM
CCCCOc1ccc(CC(NC(=O)OC(C)(C)C)C(=O)NC(C)C(=O)NC(Cc2ccccc2)C(=O)NCC(N)=O)cc1 (configuration not stated) (Boc-Y(nBu)AFG-NH2; configuration not given here): 51 µM
Cc1sc2nc3n(c(=O)c2c1C)N=CN(c1ccc(Cl)cc1)C3: > 100 µM
COc1ccc(-c2c(N)noc2-c2cc(OC)c3c(c2)OCCO3)cc1: 67.5 µM
COc1ccc2nc3cc(Cl)ccc3c(NCCCN3CCN(CCCNc4ccc5nnn6c7ccccc7c(=O)c4c56)CC3)c2c1: > 25 µM

Incoming: Data request, read-out TGI, for Cc1cc(O)c(/C=N/C(=S)Nc2ccc(S(N)(=O)=O)cc2)c(=O)o1
Outgoing: > 100 µM

Incoming: Data request, read-out TGI, for CC(Oc1ccc(Cl)cc1Cl)C(=O)NN1C(=O)CC(=O)N(c2ccccc2)C1=S (configuration not stated)
Outgoing: > 100 µM

Incoming: Data request, read-out TGI, for COc1cc([C@@H]2c3cc4c(cc3[C@@H](Nc3ccc(Cl)cc3C(=O)c3ccccc3)[C@H]3COC(=O)[C@H]23)OCO4)cc(OC)c1OC
Outgoing: > 100 µM

Incoming: Data request, read-out TGI, for CCOC(=O)[C@@H]1CSC(CC)=C(C(=O)O)N1
Outgoing: > 100 µM

Incoming: Data request, read-out TGI, for CCOC(=O)C(=CNc1ccc(F)c(F)c1)C(=O)OCC
Outgoing: > 100 µM

Incoming: Data request, read-out TGI, for COc1ccc(C2=Nn3c(nnc3-n3nc(C)cc3C)SC2)cc1
Outgoing: > 100 µM

Incoming: Data request, read-out TGI, for Cc1ccc(-c2cc(-c3ccc(Cl)cc3)nc(/N=C3\C(=O)N(CN(C)C)c4ccccc43)n2)cc1
Outgoing: > 100 µM

Incoming: Data request, read-out TGI, for Cc1cc(-c2nc3c(F)cccc3s2)ccc1N
Outgoing: > 100 µM

Incoming: Data request, read-out TGI, for CNC(=O)OCc1nc(SC)n(C)c1COC(=O)NC
Outgoing: 290 µM

Incoming: Data request, read-out TGI, for CC(C)[Si]1(C(C)C)OCC2OC(n3ccc(=O)[nH]c3=O)C([Se]c3ccccc3)C2O[Si](C(C)C)(C(C)C)O1 (configuration not stated)
Outgoing: 20.1 µM

Incoming: Data request, read-out TGI, for COc1ccc2c(c1OC)O/C(=C\c1ncc([N+](=O)[O-])n1C)C2=O
Outgoing: 1.72 µM

Incoming: Data request, read-out TGI, for C=C1C[C@@H]2O[C@H]3[C@H]4[C@@H](CC[C@@](C)(OC(=O)CCC)[C@H]42)[C@@H](C)C(=O)O[C@@]3(C)CC[C@H]1OO
Outgoing: > 100 µM

Incoming: Data request, read-out TGI, for O=C1CCC(=O)N1Sc1ccccc1
Outgoing: > 100 µM

Incoming: Data request, read-out TGI, for COc1cc2cc(Oc3cccc(NC(=O)Nc4cc(C(F)(F)F)cc(C(F)(F)F)c4)c3)c(C)nc2cc1OC
Outgoing: 4.24 µM

Incoming: Data request, read-out TGI, for CCSC1=N/C(=C\c2ccco2)C(=O)N1
Outgoing: > 100 µM

Incoming: Data request, read-out TGI, for CC(=O)/C(=C\I)c1ccccc1
Outgoing: 4.75 µM
